These data points were gathered from patent US20250304576A1.

# Target system: Recombinant IKKα (Homo sapiens, UniProt O15111)
# Construct: purchased Millipore, Dundee, UK
# Sequence (O15111 whole entry): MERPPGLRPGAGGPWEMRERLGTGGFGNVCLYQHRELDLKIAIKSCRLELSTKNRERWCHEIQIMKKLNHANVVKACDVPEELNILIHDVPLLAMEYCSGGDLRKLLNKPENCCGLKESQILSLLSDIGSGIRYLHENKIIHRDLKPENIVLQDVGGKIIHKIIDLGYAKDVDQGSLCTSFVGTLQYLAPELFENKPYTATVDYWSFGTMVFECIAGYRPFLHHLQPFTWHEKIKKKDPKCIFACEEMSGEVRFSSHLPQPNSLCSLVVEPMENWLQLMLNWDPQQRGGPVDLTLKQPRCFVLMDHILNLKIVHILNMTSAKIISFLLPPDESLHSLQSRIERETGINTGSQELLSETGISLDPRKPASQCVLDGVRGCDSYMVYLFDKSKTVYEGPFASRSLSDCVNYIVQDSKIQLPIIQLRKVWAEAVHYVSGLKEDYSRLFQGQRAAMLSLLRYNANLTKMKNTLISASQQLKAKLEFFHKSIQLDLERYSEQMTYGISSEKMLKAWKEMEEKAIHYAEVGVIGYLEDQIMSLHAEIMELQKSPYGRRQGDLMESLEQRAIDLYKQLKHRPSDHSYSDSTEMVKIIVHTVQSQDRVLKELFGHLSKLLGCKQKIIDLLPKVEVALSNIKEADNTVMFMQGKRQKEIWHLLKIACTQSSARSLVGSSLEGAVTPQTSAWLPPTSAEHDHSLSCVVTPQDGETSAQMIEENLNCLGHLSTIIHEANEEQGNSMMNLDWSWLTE
# Assay info: DELFIA IKKα kinase assay (apparent Ki, Cheng-Prusoff)
# Format: biochemical
# Condition parameters: non-italicised figure: DELFIA assay
Readout name: log10 of Ki (log10 of the value in nM)
// stored as log10 of Ki expressed in nM

- Compound: "CC(C)CCNc1cc(-c2ccc3[nH]nc(N)c3c2)ccn1 [Example 16]"
  log10 of Ki: 1.81
- Compound: "Nc1cc(-c2cc(-c3ccccc3CO)c3[nH]nc(N)c3c2)ccn1 [Example 125]"
  log10 of Ki: 2.26
- Compound: "CC(C)(C)C#Cc1cc(-c2ccnc(NCCN)c2)cc2c(N)n[nH]c12 [Example 161]"
  log10 of Ki: 2.11
- Compound: "CC(C)CC(=O)Nc1cc(-c2cc(C#CC(C)(C)C)c3[nH]nc(N)c3c2)ccn1 [Example 171]"
  log10 of Ki: 2.09
- Compound: "CC(C)(C)C#Cc1cc(-c2ccnc(NC(=O)C3CCCC3)c2)cc2c(N)n[nH]c12 [Example 173]"
  log10 of Ki: 2.47

Problem: Entry Nc1n[nH]c2ccc(-c3ccnc(NC(=O)NCCCO)c3)cc12 [Example 42] : reported log10 of Ki = ?
Solution: 2.06

Problem: Entry CC(C)(O)C#Cc1c(-c2ccc3[nH]nc(N)c3c2)ccnc1N [Example 87] : reported log10 of Ki = ?
Solution: 0.90

Problem: Entry Nc1n[nH]c2ccc(-c3ccnc(NC(=O)Nc4cccc(Cl)c4)c3)cc12 [Example 52] : reported log10 of Ki = ?
Solution: 1.56
